- TESTED_TARGET: Recombinant JAK3 (Amino acids 781-1124) (Homo sapiens, UniProt P52333)
- Construct: JAK3 (Amino acids 781-1124; NM_000215.3)
- Sequence (P52333 781-1124): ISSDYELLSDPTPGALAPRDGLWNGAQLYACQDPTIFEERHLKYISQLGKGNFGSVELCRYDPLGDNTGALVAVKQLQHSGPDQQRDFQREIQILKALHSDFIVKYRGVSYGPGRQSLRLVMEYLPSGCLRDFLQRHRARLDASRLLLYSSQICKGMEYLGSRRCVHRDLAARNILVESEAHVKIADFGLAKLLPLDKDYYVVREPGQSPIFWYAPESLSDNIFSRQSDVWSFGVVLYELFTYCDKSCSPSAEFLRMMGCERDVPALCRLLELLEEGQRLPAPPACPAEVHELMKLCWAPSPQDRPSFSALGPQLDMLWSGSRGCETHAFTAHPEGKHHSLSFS
- METHOD_NOTES: Kinase-Glo Luminescent Kinase Assay, recombinant JAK3
- ASSAY_CONTEXT: 200 μg/ml Poly Glu-Tyr (4:1), ATP 1 uM, 90 min room temperature, luminescence
Below, each entry is listed alongside its reported IC50.

Below are worked cases with known answers.
| COMPOUND | DATA_VALUE |
| --- | --- |
| N#CCC(=O)N1CCC(c2ncnc3cnc4[nH]ccc4c23)C1 (stereo not shown) [Ex. 34] | > 20 nM |
| N#C/N=C(\CC(F)(F)F)N1CCC(c2ccnc3cnc4[nH]ccc4c23)C1 (stereo not shown) [Ex. 45] | > 20 nM |
| O=C(CC(F)(F)F)N1CCCC(c2ccnc3cnc4[nH]ccc4c23)C1 (stereo not shown) [Ex. 4] | 1 to 20 nM |
| c1cc(N2CCCCC2)c2c(cnc3[nH]ccc32)n1 [Ex. 58] | 1 to 20 nM |
| N#C/N=C(\CC(F)(F)F)N1CCCC(c2ccnc3cnc4[nH]ccc4c23)C1 (stereo not shown) [Ex. 44] | > 20 nM |
| N#CCC(=O)N1CC[C@H](c2ccnc3cnc4[nH]ccc4c23)C1 [Ex. 14A] | > 20 nM |
| CC(C)C(=O)N1CCC(c2ncnc3cnc4[nH]ccc4c23)C1 (stereo not shown) [Ex. 36] | > 20 nM |
| CC(C)OC(=O)N1CCCC(c2ccnc3cnc4[nH]ccc4c23)C1 (stereo not shown) [Ex. 52] | 1 to 20 nM |
| CN(C(=O)CC1CC1)C1CCCN(c2ccnc3cnc4[nH]ccc4c23)C1 (stereo not shown) [Ex. 63] | > 20 nM |

Q) What IC50 value was documented for this compound, CS(=O)(=O)NC1CCN(c2ccnc3cnc4[nH]ccc4c23)C1 (stereo not shown) [Ex. 101] ?
A) 1 to 20 nM

* * *

- TESTED_TARGET: Recombinant JAK2 (Amino acids 808-1132) (Homo sapiens, UniProt O60674)
- Construct: JAK2 (Amino acids 808-1132; NM_004972.3)
- Sequence (O60674 808-1132): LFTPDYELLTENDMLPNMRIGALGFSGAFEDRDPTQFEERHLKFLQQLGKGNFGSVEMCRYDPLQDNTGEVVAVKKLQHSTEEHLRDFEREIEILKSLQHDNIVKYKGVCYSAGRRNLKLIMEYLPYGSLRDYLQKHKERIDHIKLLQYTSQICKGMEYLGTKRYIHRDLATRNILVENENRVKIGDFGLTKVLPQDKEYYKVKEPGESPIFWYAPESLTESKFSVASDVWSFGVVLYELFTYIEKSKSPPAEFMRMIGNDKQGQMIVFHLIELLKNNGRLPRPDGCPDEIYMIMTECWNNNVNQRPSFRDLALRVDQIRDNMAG
- METHOD_NOTES: Kinase-Glo Luminescent Kinase Assay, recombinant JAK2
- ASSAY_CONTEXT: 200 μg/ml Poly Glu-Tyr (4:1), ATP 1 uM, 90 min room temperature, luminescence
pIC50: −log10 of the molar value.
Below, each entry is listed alongside its reported pIC50.

Below are worked cases with known answers.
| MOLECULE | TESTED_TARGET | pIC50 |
| --- | --- | --- |
| O=C(C1CCOC1)N1CCCC(c2ncnc3cnc4[nH]ccc4c23)C1 (stereo not shown) | Recombinant JAK2 (Amino acids 808-1132) (Homo sapiens, UniProt O60674) | < 7.70 |
| O=C(NC1CC1)[C@@H]1CCCN(c2ccnc3cnc4[nH]ccc4c23)C1 [Ex. 61B] | Recombinant JAK2 (Amino acids 808-1132) (Homo sapiens, UniProt O60674) | < 7.70 |

Q) What pIC50 value was documented for this molecule, O=S(=O)(NC1CCCN(c2ccnc3cnc4[nH]ccc4c23)C1)C(F)(F)F (stereo not shown) ?
A) 7.70 to 9.00

Q) What pIC50 value was documented for this molecule, N#CCC(=O)N1CCC[C@@H](c2ccnc3cnc4[nH]ccc4c23)C1 ?
A) 7.70 to 9.00

Q) What pIC50 value was documented for this molecule, N#C/N=C(\CC(F)(F)F)N1CCCC(c2ccnc3cnc4[nH]ccc4c23)C1 (stereo not shown) ?
A) 7.70 to 9.00

Q) What pIC50 value was documented for this molecule, N#CCC(=O)N1CCC[C@@H](c2ncnc3cnc4[nH]ccc4c23)C1 [Ex. 23A] ?
A) < 7.70

Q) What pIC50 value was documented for this molecule, CC(C)CS(=O)(=O)N1CCC(c2ccnc3cnc4[nH]ccc4c23)C1 (stereo not shown) ?
A) 7.70 to 9.00

Q) What pIC50 value was documented for this molecule, CCS(=O)(=O)N1CCC(c2ccnc3cnc4[nH]ccc4c23)C1 (stereo not shown) ?
A) 7.70 to 9.00

Q) What pIC50 value was documented for this molecule, CC(C)NC(=O)N1CCCC(c2ccnc3cnc4[nH]ccc4c23)C1 (stereo not shown) ?
A) < 7.70

Q) What pIC50 value was documented for this molecule, CN(C)C(=O)N1CCCC(c2ccnc3cnc4[nH]ccc4c23)C1 (stereo not shown) ?
A) 7.70 to 9.00

Q) What pIC50 value was documented for this molecule, CC(C)CS(=O)(=O)N1CCCC(c2ncnc3cnc4[nH]ccc4c23)C1 (stereo not shown) ?
A) < 7.70

Q) What pIC50 value was documented for this molecule, CN(CC1CC1)C1CCN(c2ccnc3cnc4[nH]ccc4c23)C1 (stereo not shown) ?
A) < 7.70

Q) What pIC50 value was documented for this molecule, CC(C)OC(=O)N1CCCC(c2ccnc3cnc4[nH]ccc4c23)C1 (stereo not shown) ?
A) 7.70 to 9.00

Q) What pIC50 value was documented for this molecule, O=C(CC(F)(F)F)N1CC[C@H](c2ccnc3cnc4[nH]ccc4c23)C1 [Ex. 15A] ?
A) < 7.70

Q) What pIC50 value was documented for this molecule, CC(C)S(=O)(=O)N1CCCC(c2ccnc3cnc4[nH]ccc4c23)C1 (stereo not shown) ?
A) < 7.70

Q) What pIC50 value was documented for this molecule, O=C(CC(F)(F)F)N1CCC[C@H](c2ncnc3cnc4[nH]ccc4c23)C1 [Ex. 24B] ?
A) 7.70 to 9.00

Q) What pIC50 value was documented for this molecule, O=C(CC(F)(F)F)N1CCCC(c2ncnc3cnc4[nH]ccc4c23)C1 (stereo not shown) ?
A) 7.70 to 9.00

Q) What pIC50 value was documented for this molecule, CS(=O)(=O)N1CCC(c2ccnc3cnc4[nH]ccc4c23)C1 (stereo not shown) ?
A) 7.70 to 9.00

Q) What pIC50 value was documented for this molecule, O=C(NC1CC1)N1CCCC(c2ccnc3cnc4[nH]ccc4c23)C1 (stereo not shown) ?
A) < 7.70

* * *

Below, each entry is listed alongside its reported IC50.
- TESTED_TARGET: Recombinant JAK1 (Amino acids 850-1154) (Homo sapiens)
- Construct: Recombinant JAK1 (Amino acids 850-1154; NM_002227.2)
- METHOD_NOTES: Kinase-Glo Luminescent Kinase Assay, recombinant JAK1
- ASSAY_CONTEXT: 200 μg/ml Poly Glu-Tyr (4:1), ATP 1 uM, 90 min room temperature, luminescence

| MOLECULE | IC50 |
| --- | --- |
| CC(C)(C)OC(=O)N1CCCC(c2ncnc3cnc4[nH]ccc4c23)C1 (stereo not drawn) | 1 to 20 nM |
| CC1CCC(C(=O)NC2CC2)CN1c1ccnc2cnc3[nH]ccc3c12 (single isomer, unassigned) [Ex. 88B] | > 20 nM |
| CC(C)/C(=N\C#N)N1CCCC(c2ccnc3cnc4[nH]ccc4c23)C1 (stereo not drawn) | > 20 nM |
| O=C(NC1CC1)C1CCN(c2ccnc3cnc4[nH]ccc4c23)CC1 | > 20 nM |
| CC(C)NC(=O)N1CCCC(c2ccnc3cnc4[nH]ccc4c23)C1 (stereo not drawn) | > 20 nM |
| O=C(C1CCOC1)N1CCCC(c2ncnc3cnc4[nH]ccc4c23)C1 (stereo not drawn) | 1 to 20 nM |
| CS(=O)(=O)N1CCC(c2ccnc3cnc4[nH]ccc4c23)C1 (stereo not drawn) | 1 to 20 nM |
| CCS(=O)(=O)N1CCCC(c2ccnc3cnc4[nH]ccc4c23)C1 (stereo not drawn) | 1 to 20 nM |

Q) What IC50 value was documented for this molecule, CC(C)CNC(=O)N1CCCC(c2ccnc3cnc4[nH]ccc4c23)C1 (stereo not drawn) ?
A) > 20 nM

* * *

- TESTED_TARGET: Recombinant JAK1 (Amino acids 850-1154) (Homo sapiens, UniProt P23458)
- Construct: Recombinant JAK1 (Amino acids 850-1154; NM_002227.2)
- Sequence (P23458 850-1154): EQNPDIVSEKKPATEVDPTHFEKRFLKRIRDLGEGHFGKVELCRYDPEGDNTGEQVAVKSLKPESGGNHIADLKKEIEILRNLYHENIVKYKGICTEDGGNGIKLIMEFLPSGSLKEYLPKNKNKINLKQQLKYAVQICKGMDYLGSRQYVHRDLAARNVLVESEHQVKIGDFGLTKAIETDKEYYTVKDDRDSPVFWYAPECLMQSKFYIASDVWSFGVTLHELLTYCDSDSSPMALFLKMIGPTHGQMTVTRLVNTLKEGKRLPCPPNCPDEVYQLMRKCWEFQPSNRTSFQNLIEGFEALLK
- METHOD_NOTES: Kinase-Glo Luminescent Kinase Assay, recombinant JAK1
- ASSAY_CONTEXT: 200 μg/ml Poly Glu-Tyr (4:1), ATP 1 uM, 90 min room temperature, luminescence
Below, each entry is listed alongside its reported IC50.

Below are worked cases with known answers.
| COMPOUND | IC50 |
| --- | --- |
| O=C(CC(F)(F)F)N1CCC(c2ccnc3cnc4[nH]ccc4c23)CC1 | > 20 nM |
| c1cc(N2CCC(OCC3CC3)CC2)c2c(cnc3[nH]ccc32)n1 | > 20 nM |
| COCCNC(=O)C1CCN(c2ccnc3cnc4[nH]ccc4c23)CC1 | > 20 nM |
| CN(C(=O)CC(F)(F)F)C1CCCN(c2ccnc3cnc4[nH]ccc4c23)C1 (stereo not shown) | > 20 nM |
| O=C(CC(F)(F)F)N1CCC[C@H](c2ccnc3cnc4[nH]ccc4c23)C1 | 1 to 20 nM |
| CS(=O)(=O)N1CCC[C@@H](c2ccnc3cnc4[nH]ccc4c23)C1 [Ex. 10B] | 1 to 20 nM |
| O=C(NC1CC1)C1CCN(c2ccnc3cnc4[nH]ccc4c23)C1 (stereo not shown) | > 20 nM |
| N#C/N=C(\CC(F)(F)F)N1CCCC(c2ccnc3cnc4[nH]ccc4c23)C1 (stereo not shown) | 1 to 20 nM |
| O=S(=O)(NC1CCCN(c2ccnc3cnc4[nH]ccc4c23)C1)C(F)(F)F (stereo not shown) | 1 to 20 nM |
| CN(CC(F)(F)F)C(=O)C1CCCN(c2ccnc3cnc4[nH]ccc4c23)C1 (stereo not shown) | 1 to 20 nM |

Q) What IC50 value was documented for this compound, CCNC(=O)N1CCCC(c2ccnc3cnc4[nH]ccc4c23)C1 (stereo not shown) ?
A) > 20 nM

Q) What IC50 value was documented for this compound, O=S(=O)(C1CC1)N1CCCC(c2ccnc3cnc4[nH]ccc4c23)C1 (stereo not shown) ?
A) 1 to 20 nM

Q) What IC50 value was documented for this compound, CC(C)CS(=O)(=O)N1CCCC(c2ncnc3cnc4[nH]ccc4c23)C1 (stereo not shown) ?
A) > 20 nM

Q) What IC50 value was documented for this compound, CC(C)C(=O)N1CCCC(c2ccnc3cnc4[nH]ccc4c23)C1 (stereo not shown) ?
A) > 20 nM

Q) What IC50 value was documented for this compound, CC(C)CS(=O)(=O)N1CCC(c2ccnc3cnc4[nH]ccc4c23)C1 (stereo not shown) ?
A) 1 to 20 nM

Q) What IC50 value was documented for this compound, N#CCC(=O)N1CCC[C@@H](c2ncnc3cnc4[nH]ccc4c23)C1 [Ex. 23A] ?
A) > 20 nM

Where these numbers come from: patent US9115133B2
